Recorded values, source ChEMBL document CHEMBL1137833.

# TARGET DESC: Estrogen receptor (Homo sapiens, UniProt Q92731+P03372)
# CONDITION DETAILS: Cancer cell lines, at 5 µM
# Description: Inhibition of ER-MDA-MB 231 breast cancer cell proliferation over 96 hr at 5 uM
Measured T/C of individual entries
Express it in %; write the number only.

{"columns": ["SMILES STRING", "TARGET DESC", "T/C, %"],
 "data": [
  ["CCCCCS(=O)(=O)CCCCCCCCCC/C(=C(/CC)c1ccc(O)cc1)c1ccc(O)cc1", "Estrogen receptor (Homo sapiens, UniProt Q92731+P03372)", 94],
  ["CCCCCSCCCN(C)CCCCCC/C(=C(/CC)c1ccc(O)cc1)c1ccc(O)cc1", "Estrogen receptor (Homo sapiens, UniProt Q92731+P03372)", 75]
]}

For the next question, use this compound.
Query: Please report T/C for the following compound: CCCCCS(=O)(=O)CCCCCCCCCC/C(=C(/CC)c1cccc(O)c1)c1ccc(O)cc1
Reply: 90
